Exercise: for every item that follows, state its recorded Emax.
ASSAYED_SYSTEM: BRAF^V600E protein (Homo sapiens, UniProt P15056, V600E)
Sequence (P15056 whole entry V600E): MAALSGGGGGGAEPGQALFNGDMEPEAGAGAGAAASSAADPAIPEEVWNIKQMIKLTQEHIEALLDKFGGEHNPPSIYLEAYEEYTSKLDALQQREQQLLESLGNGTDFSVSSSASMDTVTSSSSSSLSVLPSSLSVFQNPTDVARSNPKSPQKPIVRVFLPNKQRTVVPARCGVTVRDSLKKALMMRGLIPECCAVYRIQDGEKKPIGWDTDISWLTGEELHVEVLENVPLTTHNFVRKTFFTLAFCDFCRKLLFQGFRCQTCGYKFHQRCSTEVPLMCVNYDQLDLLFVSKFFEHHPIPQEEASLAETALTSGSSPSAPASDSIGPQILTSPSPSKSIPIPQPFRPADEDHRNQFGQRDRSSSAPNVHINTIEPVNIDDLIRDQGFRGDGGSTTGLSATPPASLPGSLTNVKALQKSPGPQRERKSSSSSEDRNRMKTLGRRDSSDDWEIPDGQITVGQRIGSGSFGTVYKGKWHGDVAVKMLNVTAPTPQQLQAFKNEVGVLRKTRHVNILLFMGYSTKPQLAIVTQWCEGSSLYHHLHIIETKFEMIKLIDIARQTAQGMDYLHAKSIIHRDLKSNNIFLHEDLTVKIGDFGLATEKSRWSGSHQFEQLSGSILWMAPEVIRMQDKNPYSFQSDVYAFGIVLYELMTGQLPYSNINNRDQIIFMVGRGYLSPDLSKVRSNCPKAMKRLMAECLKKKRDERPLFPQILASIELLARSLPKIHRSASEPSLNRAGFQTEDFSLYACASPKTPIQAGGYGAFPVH
EXPERIMENTAL_DETAILS: HiBiT cellular BRAF V600E degradation assay
Format: cell-based
CONDITION_NOTES: A375.10 cells, 24 h incubation; Emax = amount of residual protein remaining in the cell after compound treatment; read-out: HiBit 24 h Emax
Counter-ions that a name gives are not always drawn.
API: value field is a number in %; no unit string.

What does the data say about its Emax? Entry: CCN(C)S(=O)(=O)Nc1ccc(F)c(C(=O)c2c[nH]c3ncc(-c4cnc(N5CCN(C(=O)CN6CCC(n7cc(NC8CCC(=O)NC8=O)cn7)CC6)CC5)nc4)cc23)c1F (stereo not shown) 22

What does the data say about its Emax? Entry: CCN(C)S(=O)(=O)Nc1ccc(F)c(C(=O)c2c[nH]c3ncc(C#Cc4ccc(C(=O)N5CCC(N6CCC(c7ccc(NC8CCC(=O)NC8=O)cc7)CC6)CC5)cc4)cc23)c1F (stereo not shown) 8.89

What does the data say about its Emax? Entry: CCCS(=O)(=O)Nc1ccc(F)c(C(=O)c2c[nH]c3ncc(-c4cnc(N5CCN(C(=O)CN6CCC(c7ccc(OC8CCC(=O)NC8=O)cc7)CC6)CC5)nc4)cc23)c1F (stereo not shown) 7.81

What does the data say about its Emax? Entry: CCN(C)S(=O)(=O)Nc1ccc(F)c(C(=O)c2c[nH]c3ncc(C#CC4CCN(C(=O)CN5CCC(c6ccc(NC7CCC(=O)NC7=O)cc6)CC5)CC4)cc23)c1F (stereo not shown) 32

What does the data say about its Emax? Entry: CCN(C)S(=O)(=O)Nc1cccc(C(=O)c2c[nH]c3ncc(-c4ccc(N5CCN(C(=O)CC6(O)CCN(c7ccc(NC8CCC(=O)NC8=O)cc7F)CC6)CC5)cc4)cc23)c1F (stereo not shown) 10.5

What does the data say about its Emax? Entry: CC(C)S(=O)(=O)Nc1ccc(F)c(C(=O)c2c[nH]c3ncc(-c4cnc(N5CCN(C(=O)CN6CCC(c7ccc(C8CCC(=O)NC8=O)cc7F)CC6)CC5)nc4)cc23)c1F (stereo not shown) 3.41

What does the data say about its Emax? Entry: CCN(C)S(=O)(=O)Nc1ccc(F)c(C(=O)c2c[nH]c3ncc(-c4ccc(N5CCC(NCC(=O)N6CCC(c7ccc(OC8CCC(=O)NC8=O)cc7)CC6)CC5)cc4)cc23)c1F (stereo not shown) [Example A99, hydrochloride] 9

What does the data say about its Emax? Entry: CCN(C)S(=O)(=O)Nc1ccc(F)c(C(=O)c2c[nH]c3ncc(-c4cnc(N5CCN(C(=O)CN6CCC(c7ccc(N(C)C8CCC(=O)NC8=O)cc7)CC6)CC5)nc4)cc23)c1F (stereo not shown) 18

What does the data say about its Emax? Entry: CCN(C)S(=O)(=O)Nc1ccc(F)c(C(=O)c2c[nH]c3ncc(-c4cnc(N5CCN(C(=O)CN6CC[C@@H](c7ccc(NC8CCC(=O)NC8=O)cc7)C(F)(F)C6)CC5)nc4)cc23)c1F (stereo partly shown) 6.94

What does the data say about its Emax? Entry: CCN(C)S(=O)(=O)Nc1ccc(F)c(C(=O)c2c[nH]c3ncc(-c4ccc(N5CCN(C(=O)CN6CCC(c7ccc(NC89CC(C8)C(=O)NC9=O)cc7)CC6)CC5)nc4)cc23)c1F 10.7
